Target System: Voltage-gated potassium channel subunit beta-2 (Rattus norvegicus)
Assay Comment: enhancers of rat Kvbeta2 NADPH turnover – biochemical, NADPH fluorescence, primary screen (AID 623);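 note: fluorescence intensity change per second fitted from 20 to 320 s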
Experimental Conditions: Recombinant KvBeta, NADPH fluorescence decrease slope, 10 min; at 10 µM; stronger effect = lower value
Calls of active or inactive are those of the source.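 Rule for the calls: active = NADPH fluorescence slope more negative than the mean of all samples by about 3 SD, 99.7% confidence; inactive = the rest.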
Metric: NADPH fluorescence slope

>  <Molecule>
CCOc1ccc2[nH]c(O)c(NC(C)=O)c2c1

>  <Target System>
Voltage-gated potassium channel subunit beta-2 (Rattus norvegicus)

>  <NADPH fluorescence slope>
-5.8e-05 (inactive)

$$$$
>  <Molecule>
Cn1c(=O)cc(OCCCC(=O)N2CCCCC2)c2ccccc21

>  <Target System>
Voltage-gated potassium channel subunit beta-2 (Rattus norvegicus)

>  <NADPH fluorescence slope>
1.8e-05 (inactive)

$$$$
>  <Molecule>
Nn1c(SCC(=O)Nc2ccccc2)nnc1-c1cccnc1

>  <Target System>
Voltage-gated potassium channel subunit beta-2 (Rattus norvegicus)

>  <NADPH fluorescence slope>
-3.7e-05 (inactive)

$$$$
>  <Molecule>
COc1ccc(NC(=O)C2CCCCN2S(=O)(=O)c2ccc(F)cc2)cc1 (configuration not stated)

>  <Target System>
Voltage-gated potassium channel subunit beta-2 (Rattus norvegicus)

>  <NADPH fluorescence slope>
-2.4e-05 (inactive)

$$$$
>  <Molecule>
COc1ccccc1N1CCN(C(=O)CSc2nc3ncnc(N)c3[nH]2)CC1

>  <Target System>
Voltage-gated potassium channel subunit beta-2 (Rattus norvegicus)

>  <NADPH fluorescence slope>
7.1e-06 (inactive)

$$$$
>  <Molecule>
COc1ccc(C(=O)NCc2nnc(SC)n2C2CCCCC2)cc1

>  <Target System>
Voltage-gated potassium channel subunit beta-2 (Rattus norvegicus)

>  <NADPH fluorescence slope>
-3.9e-05 (inactive)

$$$$
>  <Molecule>
CC(C)OC(=O)CSc1nnc(-c2cccnc2)n1Cc1ccccc1

>  <Target System>
Voltage-gated potassium channel subunit beta-2 (Rattus norvegicus)

>  <NADPH fluorescence slope>
-4.8e-05 (inactive)

$$$$
>  <Molecule>
CC(=O)Nc1ccc(S(=O)(=O)n2nc(C)cc2C)cc1

>  <Target System>
Voltage-gated potassium channel subunit beta-2 (Rattus norvegicus)

>  <NADPH fluorescence slope>
-0.000136 (inactive)

$$$$

For every item below, please supply its NADPH fluorescence slope.
1. CCn1c(C(=O)OC)cc2c1ccn2-c1ccc(F)cc1
2. O=C(NCCCN1CCN(Cc2ccccc2)CC1)C1CCN(c2nnc(-n3cccc3)s2)CC1
3. COc1cc(C2C(C(=O)c3ccc(C)o3)=C(O)C(=O)N2c2cc(C)on2)cc(Br)c1O (configuration not stated)
4. Cn1cnc2c(N3CCCCC3)nccc21
5. Nc1nc(CSc2nc3ccccc3[nH]2)nc(N2CCOCC2)n1

Result:
-2e-05 (inactive)
-5e-05 (inactive)
-3e-05 (inactive)
-0.000121 (inactive)
-3.7e-05 (inactive)

For every item below, please supply its NADPH fluorescence slope.
1. COc1ccccc1S(=O)(=O)Cc1ccc(C(=O)N2CCOCC2)o1
2. CC1CCN(S(=O)(=O)c2ccc(Br)s2)CC1
3. CCCn1c(SCC(=O)NCc2ccco2)nc2c1c(=O)n(C)c(=O)n2C
4. CC(=O)c1cccc(NC(=O)N2C3CCC2CC(O)(c2cccnc2)C3)c1 (configuration not stated)
5. CC1CCCC(C)N1CCNC(=O)C1CCN(S(=O)(=O)N2CCCCC2)CC1 (configuration not stated)

Result:
1: -5.8e-05 (inactive); 2: 2.6e-05 (inactive); 3: -4.1e-05 (inactive); 4: 3.9e-06 (inactive); 5: 1.9e-05 (inactive)

For every item below, please supply its NADPH fluorescence slope.
1. CCOc1ccc(OCC)c(NC(=O)CN2CCN(C(=O)c3ccco3)CC2)c1
2. CCCOc1ccc(N2C(=O)CC(NCCCN3CCC(C(N)=O)CC3)C2=O)cc1 (configuration not stated)
3. NC(=O)C1CCN(CC(=O)N2c3ccccc3CCc3ccccc32)CC1
4. COC(=O)CCc1c(C)c(C#N)c2nc3ccccc3n2c1N1CCCC1
5. Cc1ccc(C)c(N2CCN(C(=O)c3ccc(CS(=O)(=O)c4ccccc4C)o3)CC2)c1
6. O=C(CSc1nnnn1C1CCCC1)Nc1cccc(NC(=O)c2ccco2)c1
7. CC(=O)Nc1cc(NC(C)=O)cc(C(=O)OCC(=O)N2CC(C)OC(C)C2)c1 (configuration not stated)

Result:
1.9e-05 (inactive)
-4.4e-05 (inactive)
-5.7e-05 (inactive)
-4e-06 (inactive)
4.4e-05 (inactive)
2.2e-05 (inactive)
-4.8e-05 (inactive)

For every item below, please supply its NADPH fluorescence slope.
1. O=C(CSc1nnc(Cn2c(=O)sc3ccccc32)n1-c1ccccc1)Nc1nccs1
2. COC(=O)c1c(N)n(-c2cc(OC)cc(OC)c2)c2nc3ccccc3nc12

Result:
1. -2.9e-05 (inactive)
2. -2.3e-05 (inactive)
